tested.on: recombinant MARK3 enzyme (Homo sapiens)
Sequence (P27448 whole entry, species assumed): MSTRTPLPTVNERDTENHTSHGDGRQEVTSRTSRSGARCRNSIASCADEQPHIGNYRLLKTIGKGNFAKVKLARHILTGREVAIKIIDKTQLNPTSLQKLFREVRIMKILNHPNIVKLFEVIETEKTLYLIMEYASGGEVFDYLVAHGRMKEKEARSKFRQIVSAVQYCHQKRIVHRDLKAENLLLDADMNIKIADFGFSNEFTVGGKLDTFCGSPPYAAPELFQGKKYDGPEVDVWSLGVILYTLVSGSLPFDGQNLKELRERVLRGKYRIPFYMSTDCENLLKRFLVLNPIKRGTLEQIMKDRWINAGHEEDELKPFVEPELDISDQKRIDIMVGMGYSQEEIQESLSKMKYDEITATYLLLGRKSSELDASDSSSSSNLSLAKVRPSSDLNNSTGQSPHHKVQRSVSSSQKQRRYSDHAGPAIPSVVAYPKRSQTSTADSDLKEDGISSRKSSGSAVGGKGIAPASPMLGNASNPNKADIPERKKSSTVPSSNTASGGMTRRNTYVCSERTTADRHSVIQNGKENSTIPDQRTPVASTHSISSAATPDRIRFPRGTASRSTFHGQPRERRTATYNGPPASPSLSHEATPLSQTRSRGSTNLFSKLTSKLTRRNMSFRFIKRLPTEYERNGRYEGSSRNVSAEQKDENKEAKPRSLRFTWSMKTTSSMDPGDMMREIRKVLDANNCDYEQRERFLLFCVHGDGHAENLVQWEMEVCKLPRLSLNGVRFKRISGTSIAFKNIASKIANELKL
procedure.text: MARK 3 Assay (HTRF, Cdc25C biotinylated peptide substrate)
test.context: 10 μM ATP, 2 hours at 25° C.
Reported values of IC50 for individual entries
Just the number please, in nM, no unit attached.

Some solved entries appear below for comparison.
(Q) Which IC50 reading was recorded for the compound O=C(NCc1nccs1)c1cc(-c2cnn3cc(-c4cccnc4)cnc23)cs1 [Example 184] ?
(A) 607

(Q) Note, next up: O=C(NCC(F)(F)F)c1cc(-c2cnn3cc(-c4ccc(N5CCOCC5)nc4)cnc23)cs1 [Example 50]
(A) 35

(Q) Note, next up: CC(C)[C@@H](NC(=O)c1cc(-c2cnn3cc(-c4ccc(NCC(C)(C)O)nc4)cnc23)cs1)C(F)(F)F [Example 49]
(A) 4

(Q) Note, next up: Cn1cc(-c2cnc3c(-c4nc(C(=O)NCC(F)(F)F)sc4Cl)cnn3c2)cn1 [Example 205]
(A) 60

(Q) Note, next up: O=C(NCC(F)(F)F)c1cc(-c2cnn3cc(-c4ccn(CCCN5CCC(F)(F)C5)c(=O)c4)cnc23)cs1 [Example 8]
(A) 158

Next, consider the following compound.
(Q) Which IC50 reading was recorded for the compound Cn1cc(-c2cnc3c(-c4ccc(C(=O)N[C@@H]5CCCC[C@@H]5N)cc4)cnn3c2)cn1 (stereo in doubt) [Example 219] ?
(A) 127

Data provenance is patent US8461162B2.
